Values were extracted from patent US20150133492A1.

# Test system: panel of human cancer cells
# assayNotes: MTT cytotoxicity assay, panel of human cancer cells
# Type: cell-based
# conditionParameters: 72 hours, read-out: mean IC50, cell cytotoxicity
reportedMetric: IC50

query: Report IC50, nothing else, for this compound: COc1cc2c(cc1OC)[C@@H](Cc1ccc(Oc3cc(C[C@H]4NCCc5cc(OC)c(OC)cc54)ccc3O)cc1)N(C)CC2
result: 8.23 to 19.7 µM

---

# Test system: human normal liver cells (LO2)
# assayNotes: MTT cytotoxicity assay, normal liver cells
# Assay type: cell-based
# conditionParameters: read-out: IC50, cytotoxic effect
reportedMetric: IC50

query: Input COc1cc2c(cc1OC)[C@@H](Cc1ccc(Oc3cc(C[C@H]4NCCc5cc(OC)c(OC)cc54)ccc3O)cc1)N(C)CC2 , output reported IC50.
result: > 62.1 µM
